Test system: anti-PAH monoclonal antibody
Assay: PAH immunoassay (competitive, antibody coated tubes): cross-reactivity with the anti-PAH monoclonal antibody
Type: binding, Balb/c mice
Details: Method 8310 EPA PAHs; phenanthrene 100%
Decide using Percent Cross-Reactivity: a value greater than or equal to 20% is Condition met, a smaller one is Condition not met.

Please review the entries below; each comes with its answer.
molecule	label
c1ccc2c(c1)ccc1ccccc12 [Phenanthrene, reference compound]	Condition met
c1ccc2cc3ccccc3cc2c1	Condition met
c1ccc2c(c1)ccc1cc3c(ccc4ccccc43)cc12	Condition not met
c1ccc2c(c1)-c1cccc3cccc-2c13	Condition met
c1ccc2cc3c(cc2c1)-c1cccc2cccc-3c12	Condition not met

Hi team, for C1=Cc2cccc3cccc1c23 , is the recorded Percent Cross-Reactivity at or above 20%?
Condition not met

Now the same for c1ccc2c(c1)ccc1c3ccccc3ccc21
Condition met

Now the same for c1cc2ccc3cccc4ccc(c1)c2c34
Condition met

Now the same for c1ccc2ccccc2c1
Condition not met

Now the same for c1cc2ccc3ccc4ccc5cccc6c(c1)c2c3c4c56
Condition not met

Now the same for c1ccc2c(c1)cc1ccc3cccc4ccc2c1c34
Condition not met

Now the same for c1ccc2cc3c(ccc4ccccc43)cc2c1
Condition met

Now the same for c1ccc2c(c1)Cc1ccccc1-2
Condition met

Now the same for c1ccc2c(c1)-c1cccc3c1c-2cc1ccccc13
Condition met

Now the same for c1ccc2c(c1)-c1ccc3ccc4cccc5cc-2c1c3c45
Condition not met

Now the same for c1cc2c3c(cccc3c1)CC2
Condition not met

Data credit: patent US5618681A
